- system_under_test: B-Raf (V600E)-kinase (Homo sapiens, UniProt P15056, V600E)
- Sequence (P15056 whole entry V600E): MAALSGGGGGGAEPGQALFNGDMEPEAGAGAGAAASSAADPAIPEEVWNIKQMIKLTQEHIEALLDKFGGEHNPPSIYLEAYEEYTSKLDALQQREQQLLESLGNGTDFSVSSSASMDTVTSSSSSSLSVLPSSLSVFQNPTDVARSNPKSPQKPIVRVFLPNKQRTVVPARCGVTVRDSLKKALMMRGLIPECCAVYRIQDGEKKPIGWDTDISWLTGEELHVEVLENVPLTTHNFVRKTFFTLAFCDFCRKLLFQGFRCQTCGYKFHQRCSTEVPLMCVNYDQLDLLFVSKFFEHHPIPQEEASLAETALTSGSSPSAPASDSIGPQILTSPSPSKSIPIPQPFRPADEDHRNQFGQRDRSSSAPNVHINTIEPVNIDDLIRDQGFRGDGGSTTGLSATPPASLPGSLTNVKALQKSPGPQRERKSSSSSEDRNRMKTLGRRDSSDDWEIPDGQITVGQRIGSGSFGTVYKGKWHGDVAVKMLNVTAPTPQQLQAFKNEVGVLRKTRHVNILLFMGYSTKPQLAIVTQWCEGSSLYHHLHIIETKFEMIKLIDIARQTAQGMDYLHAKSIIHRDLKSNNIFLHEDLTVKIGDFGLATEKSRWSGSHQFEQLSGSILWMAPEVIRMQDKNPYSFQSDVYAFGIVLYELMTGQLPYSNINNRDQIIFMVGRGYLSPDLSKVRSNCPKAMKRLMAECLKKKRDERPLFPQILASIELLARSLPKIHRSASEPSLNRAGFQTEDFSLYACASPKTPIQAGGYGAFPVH
- assay: Kinase test B-Raf (V600E)
- Assay type: biochemical
- stated_conditions: compound concentration 2 μM; 100% = no inhibition, 0% = total inhibition; read-out: % CTL (residual activity of the enzyme relative to DMSO control)
endpoint: remaining activity at 2 µM (%)
A number alone suffices; assume %.

Would you please look over these solved cases?
// query Under B-Raf (V600E)-kinase (Homo sapiens, UniProt P15056, V600E): report remaining activity at 2 µM of Cc1ncc(C(=O)Nc2cc(C(C)(C)C)on2)cc1-n1cc(-c2cncc(N3CCN(C(C)C)CC3)c2)nn1 .
// result 2.2

// query Look up and report remaining activity at 2 µM, with B-Raf (V600E)-kinase (Homo sapiens, UniProt P15056, V600E) as system, for Cc1ncc(C(=O)Nc2cc(CN3CCCC3)cc(C(F)(F)F)c2)cc1-n1cc(-c2cnn(C)c2C)nn1
// result 1.8

// query Under B-Raf (V600E)-kinase (Homo sapiens, UniProt P15056, V600E): report remaining activity at 2 µM of Cc1ncc(C(=O)Nc2cc(C(C)(C)C)on2)cc1-n1cc(-c2cncc(N3CCN(CCO)CC3)c2)nn1 .
// result 2.6

// query Consider the compound Cc1ncc(NC(=O)c2cccc(C(C)(C)C#N)c2)cc1-n1cc(-c2cncc(N3CCN(CC4CC4)CC3)c2)nn1 tested on B-Raf (V600E)-kinase (Homo sapiens, UniProt P15056, V600E); state its remaining activity at 2 µM.
// result 2.3

New cases:
// query Please respond with reported remaining activity at 2 µM (system B-Raf (V600E)-kinase (Homo sapiens, UniProt P15056, V600E)) for CCN1CCN(c2cc(NC(=O)c3cnc(C)c(-n4cc(-c5cnn(C)c5C)nn4)c3)cc(C(F)(F)F)c2)CC1 .
// result 13.4

// query Report value only: remaining activity at 2 µM, B-Raf (V600E)-kinase (Homo sapiens, UniProt P15056, V600E), Cc1ncc(NC(=O)c2cccc(C(C)(C)C#N)c2)cc1-n1cc(-c2cncc(N3CCN(C(C)C)CC3)c2)nn1
// result 6.8

// query Give B-Raf (V600E)-kinase (Homo sapiens, UniProt P15056, V600E) remaining activity at 2 µM for the following compound: Cc1ncc(C(=O)Nc2cc(C(C)(C)C)no2)cc1-n1cc(-c2cncc(N3CCN(C)CC3)c2)nn1
// result 2.9

// query Please look at COc1ccc(NC(=O)c2cnc(C)c(-n3cc(-c4cnc5cnc(C)cn45)nn3)c2)cc1C(F)(F)F and tell me its recorded remaining activity at 2 µM on B-Raf (V600E)-kinase (Homo sapiens, UniProt P15056, V600E).
// result 1.4

// query Report remaining activity at 2 µM from B-Raf (V600E)-kinase (Homo sapiens, UniProt P15056, V600E) testing of COCCN(C)Cc1cc(C(F)(F)F)cc(NC(=O)c2cnc(C)c(-n3cc(-c4cnn(C)c4C)nn3)c2)c1OC
// result 2

// query GET remaining activity at 2 µM where system = B-Raf (V600E)-kinase (Homo sapiens, UniProt P15056, V600E) and item = Cc1ncc(C(=O)Nc2cc(C(C)(C)C)on2)cc1-n1cc(-c2cncc(N3CCN(CCCO)CC3)c2)nn1
// result 9.8

// query // fetch remaining activity at 2 µM; item: Cc1ncc(C(=O)Nc2cc(N3CCCCC3)cc(C(F)(F)F)c2)cc1-n1cc(-c2cnn(C)c2C)nn1 ; system: B-Raf (V600E)-kinase (Homo sapiens, UniProt P15056, V600E)
// result 9

// query # return remaining activity at 2 µM for COc1ccc(NC(=O)c2cnc(C)c(-n3cc(-c4cncs4)nn3)c2)cc1C(F)(F)F , test system: B-Raf (V600E)-kinase (Homo sapiens, UniProt P15056, V600E)
// result 1.5

// query Give the observed remaining activity at 2 µM of Cc1ncc(C(=O)Nc2cc(C(C)(C)C)on2)cc1-n1cc(-c2cncc(N3CCNCC3)c2)nn1 for B-Raf (V600E)-kinase (Homo sapiens, UniProt P15056, V600E).
// result 1.8

// query Write remaining activity at 2 µM of Cc1ncc(C(=O)Nc2cc(C(C)(C)C)on2)cc1-n1cc(-c2cncc(CN3CCN(C(C)C)CC3)c2)nn1 ; system used: B-Raf (V600E)-kinase (Homo sapiens, UniProt P15056, V600E)
// result 4.1

* * *

- system_under_test: B-Raf (V600E)-kinase (Homo sapiens, UniProt P15056, V600E)
- assay: Kinase test B-Raf (V600E)
- Format: biochemical
- stated_conditions: compound concentration 2 μM; 100% = no inhibition, 0% = total inhibition; read-out: % CTL (residual activity of the enzyme relative to DMSO control)
With a cut-off of 3%, any remaining activity at 2 µM strictly below it is called yes; any remaining activity at 2 µM meeting it or above is called no.

These recorded examples may help you get a feel for the data.
// query hey, is remaining activity at 2 µM for COc1ccc(C(=O)Nc2cnc(C)c(-n3cc(-c4cnn(C)c4C)nn3)c2)cc1C(F)(F)F [XII-7] lower than 3% or not?
// result no

// query For this compound, is remaining activity at 2 µM lower than 3%? Cc1ncc(C(=O)Nc2cc(N3CCN(C)CC3)cc(C(F)(F)F)c2)cc1-n1cc(-c2cnn(C)c2C)nn1 [Example I-3]
// result no

New cases:
// query Consider the compound Cc1ncc(C(=O)Nc2cc(C(F)(F)F)cc(N(C)CCN(C)C)c2C)cc1-n1cc(-c2cnn(C)c2C)nn1 [Example I-119] . Is its remaining activity at 2 µM strictly less than 3%?
// result yes

* * *

- system_under_test: B-Raf (V600E)-kinase (Homo sapiens, UniProt P15056, V600E)
- assay: Kinase test B-Raf (V600E)
- Format: biochemical
- stated_conditions: compound concentration 2 μM; 100% = no inhibition, 0% = total inhibition; read-out: % CTL (residual activity of the enzyme relative to DMSO control)
endpoint: remaining activity at 2 µM (%)
# number only, unit % dropped from output

Known remaining activity at 2 µM results, listed for orientation:
// query Query remaining activity at 2 µM for CNCc1cc(NC(=O)c2cnc(C)c(-n3cc(-c4cnn(C)c4C)nn3)c2)cc(C(F)(F)F)c1
// result 1.3

// query Determine from records and report remaining activity at 2 µM for Cc1ncc(C(=O)Nc2cc(C(C)(C)C)on2)cc1-n1cc(-c2cncc(N3CCN(CC(F)F)CC3)c2)nn1
// result 2.3

// query Give the reported value of remaining activity at 2 µM for this record: COc1c(CN2CCCC2)cc(C(F)(F)F)cc1NC(=O)c1cnc(C)c(-n2cc(-c3cnn(C)c3C)nn2)c1
// result 2.1

// query Output remaining activity at 2 µM of COc1cncc(-c2cn(-c3cc(C(=O)Nc4cc(C(C)(C)C)n[nH]4)cnc3C)nn2)c1
// result 2.4

// query Supply measured remaining activity at 2 µM of Cc1ncc(C(=O)Nc2cc(C(C)(C)C)on2)cc1-n1cc(-c2cnn(C)c2C)nn1 in your reply.
// result 7.6

// query Supply reported remaining activity at 2 µM belonging to this molecule: Cc1ncc(C(=O)Nc2cc(CN(C)C)c(Cl)c(C(F)(F)F)c2)cc1-n1cc(-c2cnn(C)c2C)nn1
// result 1.6

***
// query Return remaining activity at 2 µM for the following molecule: Cc1ncc(C(=O)Nc2cc(C(C)(C)C)on2)cc1-n1cc(-c2cncc(NC3CCN(C(C)C)CC3)c2)nn1
// result 1.6

// query Return reported remaining activity at 2 µM. Input molecule: Cc1ncc(C(=O)Nc2cc(C(C)C)no2)cc1-n1cc(-c2cncc(N3CCN(C(C)C)CC3)c2)nn1
// result 2.9

// query Give remaining activity at 2 µM for Cc1ncc(NC(=O)c2cccc(C(C)(C)C#N)c2)cc1-n1cc(-c2cncc(C#N)c2)nn1
// result 0.9

// query For the molecule Cc1ncc(NC(=O)c2cccc(OC(F)(F)F)c2)cc1-n1cc(-c2cnn(C)c2C)nn1 , give its reported remaining activity at 2 µM.
// result 6.4

// query For CCN1CCN(c2cc(NC(=O)c3cnc(C)c(-n4cc(-c5cnn(C)c5C)nn4)c3)cc(C(F)(F)F)c2C)CC1 , write its remaining activity at 2 µM.
// result 2.3

// query Determine from records and report remaining activity at 2 µM for CCOCCN1CCN(c2cncc(-c3cn(-c4cc(NC(=O)c5cc(C(F)(F)F)ccn5)cnc4C)nn3)c2)CC1
// result 1.7

// query Answer with the recorded remaining activity at 2 µM of Cc1cn2c(-c3cn(-c4cc(NC(=O)c5cc(N6CCN(C)CC6)c(C)c(C(F)(F)F)c5)cnc4C)nn3)cnc2cn1 only.
// result 2.1

// query Report remaining activity at 2 µM for COc1cncc(-c2cn(-c3cc(C(=O)Nc4cc(CN5CCCC5)cc(C(F)(F)F)c4)cnc3C)nn2)c1
// result 2.5

// query Item CCN1CCN(c2cc(NC(=O)c3cnc(C)c(-n4cc(-c5cccnc5)nn4)c3)cc(C(F)(F)F)c2C)CC1 : provide remaining activity at 2 µM
// result 6.1

// query Return value of remaining activity at 2 µM for input Cc1cn2c(-c3cn(-c4cc(C(=O)Nc5cc(C(F)(F)F)ccn5)cnc4C)nn3)cnc2cn1 , no commentary.
// result 1.5

// query Supply recorded remaining activity at 2 µM for Cc1ncc(NC(=O)c2cccc(OC(F)(F)F)c2)cc1-n1cc(-c2cncc(N3CCN(C(C)(C)C)CC3)c2)nn1 here.
// result 4

// query Tell us which remaining activity at 2 µM value is on record for Cc1ncc(C(=O)Nc2cc(C(F)(F)F)ccn2)cc1-n1cc(-c2cncs2)nn1
// result 1.2

// query Fill in reported remaining activity at 2 µM for this entry: Cc1ncc(NC(=O)c2cc(OC(F)(F)F)cc(N(C)CCN(C)C)c2)cc1-n1cc(-c2cnn(C)c2C)nn1
// result 1.6

// query Return remaining activity at 2 µM for the following molecule: Cc1ncc(C(=O)Nc2cc(C(C)(C)C)on2)cc1-n1cc(-c2cncc(N3CCC4(CCN(C)CC4)CC3)c2)nn1
// result 0.8

// query Name the recorded remaining activity at 2 µM of the item Cc1ncc(C(=O)Nc2ccc(Cl)c(C(C)(C)C)c2)cc1-n1cc(-c2cncc(N3CCN(C)CC3)c2)nn1 in your answer.
// result 3.1

// query Please list remaining activity at 2 µM recorded for the molecule Cc1ncc(C(=O)Nc2cc(CNCC(C)C)c(Cl)c(C(F)(F)F)c2)cc1-n1cc(-c2cnn(C)c2C)nn1
// result 1.2
